Tested on: THRa homodimer (NR concentration 90 nM)
experimentDescription: PBM binding z-score (relative to random genomic background probes); higher = stronger binding; sequences stand for … in GC…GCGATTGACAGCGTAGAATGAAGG
measuredAttribute: PBM binding z-score
Hey, just send me the number, nothing else.

seq=CCTCGGAGGACAGAAGGTCAGAGCTGTCCGCTTT targetofassay="THRa homodimer (NR concentration 90 nM)" numericresult=-0.0461
seq=GCGACTGGGGAATCAGCAGGTTACCATAACTTAA targetofassay="THRa homodimer (NR concentration 90 nM)" numericresult=-0.272
seq=GCTAGCAGCCCATTTGGGTCACTCAATGACGGGC targetofassay="THRa homodimer (NR concentration 90 nM)" numericresult=0.119
seq=CCTACTGGGCCAAGGTCGTTGATCAGTCAAAGCA targetofassay="THRa homodimer (NR concentration 90 nM)" numericresult=0.184
seq=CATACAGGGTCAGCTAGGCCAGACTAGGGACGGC targetofassay="THRa homodimer (NR concentration 90 nM)" numericresult=1.06

// moving on: another record for PBM binding z-score
Request: I'm curious: which PBM binding z-score was measured for AGAACGAGGGCACGCTGAGTTGACAGCAGAGTAG tested on THRa homodimer (NR concentration 90 nM)?
Result: -0.174

====

System: PPARg homodimer (NR concentration 180 nM)
experimentDescription: PBM binding z-score (relative to random genomic background probes); higher = stronger binding; sequences stand for … in GC…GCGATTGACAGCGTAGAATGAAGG
Items are presented alongside their recorded PBM binding z-score.

Past entries and their recorded results:
seq=TCATATAGGTAAATGCTATGTGAAAGTCCGATCT result=0.542
seq=TCTAGCAGGCCAGAGGGACACTCAAGAGGTACGG result=-1.07
seq=CCTAGCAGGCCAATCTGGGTCAATCAAGGCTTGA result=0.323

Pending sequence:
Request: Fill in the blank: the reported PBM binding z-score of TAGCCTAGGTCATGAGGGCCAGTATAGTGTCGGC is ____.
Result: 0.909

====

Test system: LXRb homodimer (NR concentration 270 nM)
experimentDescription: PBM binding z-score (relative to random genomic background probes); higher = stronger binding; sequences stand for … in GC…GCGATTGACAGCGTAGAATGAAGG
PBM binding z-score of 0.3 or higher: satisfied. Under 0.3: not satisfied.

Solved entries:
seq=ATCTCTAGGTAACCAAGTCCAGTGAATGCCGAAC classname=satisfied
seq=TCGAGTCGGTTACCAATGGGGCATTCAGCTTTCT classname="not satisfied"
seq=GCTGCTAGGTCAACTGATGATCAGCTAAAGCTCG classname="not satisfied"

Request: PBM binding z-score >= 0.3 for TAGCCTAGGTCATTGAGCCAGTATAGTACGCATC ?
Result: not satisfied

Request: Queued: ATCTCTAGGTAAAGTTCAGTGAAAGATCGATAGA
Result: satisfied

Request: And what about the sequence CGAACTAGGTCATAACAGGACAGTGAAGGATGAT ?
Result: not satisfied

====

Test system: RARa homodimer (NR concentration 270 nM)
experimentDescription: PBM binding z-score (relative to random genomic background probes); higher = stronger binding; sequences stand for … in GC…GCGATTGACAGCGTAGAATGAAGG
measuredAttribute: PBM binding z-score
# answer = number (no unit)

seq=CCAGACAGGAGAAAGGTAACTCAGTCTGGTACGC targetofassay="RARa homodimer (NR concentration 270 nM)" measuredattribute="PBM binding z-score" numericresult=0.262
seq=TTACCATGGTGAGCTGAGGTCGTTGATCCAACTC targetofassay="RARa homodimer (NR concentration 270 nM)" measuredattribute="PBM binding z-score" numericresult=-0.905
seq=CTTAGCAGGCCAATCTGGGTCACTCAAGGCTTGA targetofassay="RARa homodimer (NR concentration 270 nM)" measuredattribute="PBM binding z-score" numericresult=-0.332
seq=AGAATGAGGTTACCAAGGATCAGGGAAACGCTTG targetofassay="RARa homodimer (NR concentration 270 nM)" measuredattribute="PBM binding z-score" numericresult=-0.233
seq=GCGACTGGGGCATCAGCAGGTTACCATCACTTAA targetofassay="RARa homodimer (NR concentration 270 nM)" measuredattribute="PBM binding z-score" numericresult=-0.548

Continue with the sequence presented below.
Request: Give its PBM binding z-score value. Item: CGTCCAAGGTCATAGGAGGTCAGTGACGACAGAT
Result: 2.29
